biological target: Transforming acidic coiled-coil-containing protein 3 (Homo sapiens); assay: inhibitors of ARNT PAS-B binding to TACC3 – biochemical, AlphaScreen, single concentration, primary screen (AID 623870); details: AlphaScreen His-ARNT PAS-B/GST-TACC3 binding, luminescence; at 9.99 µM; TACC3 fragment carries E629A point mutation
Out of some 390,000 compounds screened, about 2,600 (0.67%) were called active.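 The calls were made as follows: active = mean inhibition of replicates at least 50% and at least half of replicates each reaching 50%; inconclusive = half or more replicates reach 50% but mean below 50%; inactive = the rest.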 Shown is part of a subset that was picked to be rich in actives.
Return exactly one item of TRUE for active, FALSE for inactive

Request: Dear colleague, could you share the recorded outcome for CCC(=O)N1C[C@H]2[C@@H](c3ccccc31)[C@H](CO)N2Cc1ccccc1F when you have a moment?
Response: FALSE

Request: Tell me the recorded outcome of this test for O=C1O[C@@H](c2ccccc2)[C@@H](c2ccccc2)N2[C@@H](c3ccccc3OCCO)[C@]3(C(=O)Nc4ccccc43)[C@@H](C(=O)N3CCCCCCC3)[C@H]12 .
Response: FALSE

Request: Tell me the assay call for CCNC(=O)C[C@H]1CC[C@@H]2[C@H](COc3ccc(NC(=O)Nc4cccc(Cl)c4)cc3C(=O)N2C)O1 please.
Response: FALSE

Request: Please let me know the test result on file for O=C(C[C@H]1CC[C@@H](NC(=O)Cc2cccnc2)[C@H](CO)O1)Nc1ccc(-c2ccccc2)cc1 .
Response: FALSE

Request: Field: outcome | Entry: O=S(=O)(c1ccc(F)cc1)N1CCCCN2[C@H](CO)[C@@H](c3ccc(C#CC4CCCC4)cc3)[C@H]2C1
Response: FALSE

Request: Hey, what did the test say about COc1ccc(S(=O)(=O)N2CCOCC2)c(C)c1C ?
Response: FALSE

Request: Tell me the assay call for N#Cc1c(N2CCCCC2)nc(N)c2c(N)nc(SCC(=O)O)cc12 please.
Response: TRUE

Request: Dear colleague, could you share the recorded outcome for CN1CCN(C(=O)C[C@H]2CC[C@H]3[C@H](COc4ccc(NC(=O)C5CC5)cc4C(=O)N3C)O2)CC1 when you have a moment?
Response: FALSE

Request: Record request — test call for O=C(C[C@H]1CC[C@H]2[C@@H](COC[C@@H](O)CN2Cc2ccccc2F)O1)NCc1ccccc1F
Response: FALSE

Request: State the result this test recorded for C[C@@H]1CN([C@@H](C)CO)C(=O)c2cc(NS(=O)(=O)c3cccs3)ccc2O[C@H]1CN(C)CC1CCCCC1 .
Response: TRUE

Request: Which outcome was entered for the molecule Cc1cc(C(=O)Nc2ccc3c(c2)C(=O)N(C)[C@@H]2CC[C@H](CC(=O)NC4CCCC4)O[C@@H]2CO3)no1 in this test?
Response: FALSE

Request: Which outcome was assigned to CCOC(=O)C1CCN(C(=O)C2CCN(S(=O)(=O)c3c(C)noc3C)CC2)CC1 in this test?
Response: TRUE

Request: Hi, sorry to bother you, what did the test record for O=C(NC[C@@H]1[C@@H](c2ccccc2)[C@H](CO)N1C(=O)C1CCC1)NC1CCCC1 ?
Response: FALSE

Request: What outcome does the record of this test show for CCOC(=O)C1CCN(C(=O)C2CCN(S(=O)(=O)CC)CC2)CC1 ?
Response: FALSE

Request: Any idea what this test logged for C[C@@H]1CN([C@@H](C)CO)C(=O)c2cccc(NC(=O)c3ccncc3)c2O[C@H]1CN(C)S(=O)(=O)c1ccc(F)cc1 ?
Response: FALSE

Request: # fetch the recorded call for CC1=NNC(=O)C1CC(=O)N/N=C/c1ccncc1 (stereo not given) here
Response: FALSE

Request: Write down the call the test reported for this molecule. Item: Cc1ccc(OS(=O)Nc2cccc3nccnc23)cc1 (stereo not given)
Response: TRUE

Request: Check the results log: what was the call for Cc1noc(C)c1NC(=O)Nc1ccc2c(c1)C(=O)N([C@@H](C)CO)C[C@H](C)[C@@H](CN(C)Cc1ccncc1)OCCCC[C@@H](C)O2 ?
Response: FALSE

Request: Recorded test call requested for O=C(NNc1nc(N2CCCC2)nc(N2CCCC2)n1)c1ccccc1
Response: FALSE

Request: Given C/C(=N\Nc1nc(N2CCOCC2)nc(N2CCOCC2)n1)c1ccc([N+](=O)[O-])cc1 , state the outcome it received in this test.
Response: FALSE

Request: Please state the recorded outcome for this molecule: COc1cccc(/C=N\NC(=O)C2=NNC(=O)C2C)c1O (stereo not given)
Response: TRUE

Request: Hi, sorry to bother you, what did the test record for CO[C@@H]1CN(C)C(=O)c2cc(NC(=O)C3CCOCC3)ccc2OC[C@H](C)N(Cc2cccnc2)C[C@@H]1C ?
Response: FALSE

Request: Entry COc1ccc(S(=O)(=O)N(C)C[C@@H]2OCc3ccccc3-c3ccccc3C(=O)N([C@@H](C)CO)C[C@@H]2C)cc1 : call = ?
Response: FALSE

Request: Check the results log: what was the call for CC(C)C#Cc1cnc2c(c1)C(=O)N([C@H](C)CO)C[C@H](C)[C@@H](CN(C)C(=O)Nc1cc(F)ccc1F)O2 ?
Response: FALSE

Request: // outcome(item) with item = O=C1c2ccccc2-c2ncnc3c(N4CCOCC4)cc(N4CCOCC4)c1c23
Response: FALSE

Request: Hi team, can someone confirm the assay call for Cc1ccc(NC(=O)C2CC2c2ccccc2)cc1 (stereo not given) ?
Response: FALSE

Request: Short answer needed: outcome of this test for CNC[C@@H]1Oc2ccc(NC(=O)CCC(F)(F)F)cc2C(=O)N([C@@H](C)CO)C[C@@H]1C ?
Response: FALSE

Request: Field: outcome | Entry: COc1ccc(CNC(=O)C[C@H]2C[C@@H]3c4cc(NC(=O)NC5CCCC5)ccc4O[C@@H]3[C@H](CO)O2)cc1
Response: FALSE

Request: Hey, what did the test say about Cc1cc(C(=O)NC2CCN(Cc3ccccc3)CC2)n[nH]1 ?
Response: FALSE

Request: What did the test return for COc1ccc(S(=O)(=O)N(C)C[C@H]2OCCCC[C@@H](C)Oc3ccc(NC(=O)CCC(F)(F)F)cc3C(=O)N([C@@H](C)CO)C[C@H]2C)cc1 ?
Response: FALSE

Request: // param item: COc1cccc(C(=O)Nc2ccc3c(c2)C(=O)N(C)[C@@H]2CC[C@H](CC(=O)NCC4CC4)O[C@@H]2CO3)c1 ; yields the recorded call
Response: FALSE

Request: Which result was noted for this molecule in the test: C[C@@H]1CN([C@@H](C)CO)C(=O)c2cc(NC(=O)C3CCCCC3)ccc2O[C@@H]1CN(C)S(=O)(=O)c1ccc(F)cc1
Response: FALSE

Request: Per the assay record, what outcome was assigned to Oc1c(C(c2ccccn2)N2CCOCC2)ccc2cccnc12 (stereo not given) ?
Response: TRUE

Request: Given CO[C@@H]1CN(C)C(=O)c2ccc(NC(=O)Nc3c(C)noc3C)cc2OC[C@@H](C)N(C(=O)Nc2cccc(Cl)c2)C[C@H]1C , state the outcome it received in this test.
Response: FALSE

Request: Please share the test call associated with CCOC(=O)C1CCN(S(=O)(=O)c2c(C)noc2C)CC1 .
Response: FALSE
